Below: a set of entries, each annotated with reported IC50.
- measured target: UniProt:P30560
- Sequence (P30560 whole entry): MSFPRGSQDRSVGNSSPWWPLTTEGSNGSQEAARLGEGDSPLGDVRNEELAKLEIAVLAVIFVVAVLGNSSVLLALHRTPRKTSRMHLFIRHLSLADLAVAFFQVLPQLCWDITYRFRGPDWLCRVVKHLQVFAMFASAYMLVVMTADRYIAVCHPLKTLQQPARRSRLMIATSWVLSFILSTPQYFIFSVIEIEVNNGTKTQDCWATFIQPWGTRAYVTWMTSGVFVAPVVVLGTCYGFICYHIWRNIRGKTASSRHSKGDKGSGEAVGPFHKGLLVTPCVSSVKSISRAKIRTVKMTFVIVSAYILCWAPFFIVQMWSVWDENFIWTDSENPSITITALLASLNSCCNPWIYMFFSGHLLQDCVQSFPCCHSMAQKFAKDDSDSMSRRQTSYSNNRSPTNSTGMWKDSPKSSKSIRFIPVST
- assay procedure: [3H]AVP radioligand binding to male rat liver crude membrane preparation (AVP-V1 sites)
- settings: male rat liver membranes; 1 nM [3H]AVP; 30 min at 30° C.; read-out: Receptor Binding Results IC50 (nM) [^3 H]-AVP-V1
*1 amine or outer side, *2 acyl side, *3 side chain or, on linkers, in order; H or OH if unused. Where a SMILES comes first, the peptide text is derived from it. [ ]: non-standard residue; d: D form. X12 = C=CCSC(=N[C@H](C(=O)[*:2])[C@@H](C)CC)[C@@H](Cc1ccccc1)N[*:1]; X14 = CCOC(=O)C(C(=O)OCC)C1C=NN([*:1])[C@H](C(=O)[*:2])C1; X2 = O=C([C@@H]1[C@@H](O)[C@@H](O)C=NN1[*:1])[*:2]; X6 = CN(C)C[C@H]1C=NN([*:1])[C@H](C(=O)[*:2])C1; X4 = CN(C)CCNC1C=NN([*:1])[C@H](C(=O)[*:2])C1; Piz(1,6-dehydro) = O=C(O)[C@@H]1CCC=NN1; X7 = CSC1=NN([*:1])[C@H](C(=O)[*:2])CC1; dPiz(1,6-dehydro) = O=C(O)[C@H]1CCC=NN1; dNMeF = CN[C@H](Cc1ccccc1)C(=O)O

Worked examples follow.
CC[C@H](C)[C@@H]1NC(=O)[C@@H](Cc2ccccc2)NC(=O)[C@@H]2CCCN2C(=O)[C@@H](Cc2ccccc2)N(C)C(=O)[C@@H]2CCC(SC)=NN2C(=O)[C@H]2CCC=NN2C1=O [Example 5] (cyclo(I[dPiz(1,6-dehydro)][X7][dNMeF]P[dF])) ... 820 nM
CC[C@H](C)[C@@H]1NC(=S)[C@@H](Cc2ccccc2)NC(=S)[C@@H]2CCCN2C(=O)[C@@H](Cc2ccccc2)N(C)C(=O)[C@@H]2CCC=NN2C(=O)[C@H]2CCC=NN2C1=O ... 200 nM
CC[C@H](C)[C@@H]1NC(=O)[C@@H](Cc2ccccc2)NC(=O)[C@@H]2CCCN2C(=O)[C@@H](Cc2ccccc2)N(C)C(=O)[C@@H]2[C@@H](O)[C@@H](O)C=NN2C(=O)[C@H]2CCC=NN2C1=O [Example 13] (cyclo(I[dPiz(1,6-dehydro)][X2][dNMeF]P[dF])) ... 10000 nM

Query block: Request: IC50, test system UniProt:P30560, entry C=CCSC1=N[C@@H]([C@@H](C)CC)C(=O)N2N=CCC[C@@H]2C(=O)N2N=CCC[C@H]2C(=O)N(C)[C@H](Cc2ccccc2)C(=O)N2CCC[C@H]2C(=O)N[C@@H]1Cc1ccccc1 [Example 12] (cyclo(P[X12][dPiz(1,6-dehydro)][Piz(1,6-dehydro)][dNMeF]))
Result block: > 10000 nM

Query block: IC50 of CC[C@H](C)[C@@H]1NC(=O)[C@@H](Cc2ccccc2)NC(=O)[C@@H]2CCCN2C(=O)[C@@H](Cc2ccccc2)N(C)C(=O)[C@@H]2C[C@@H](CN(C)C)C=NN2C(=O)[C@H]2CCC=NN2C1=O [Example 18] (cyclo(I[dPiz(1,6-dehydro)][X6][dNMeF]P[dF])) on UniProt:P30560?
Result block: 1850 nM

Query block: So what IC50 did CC[C@H](C)[C@@H]1NC(=O)[C@@H](Cc2ccccc2)NC(=O)[C@@H]2CCCN2C(=O)[C@@H](Cc2ccccc2)N(C)C(=O)[C@@H]2CC(NCCN(C)C)C=NN2C(=O)[C@H]2CCC=NN2C1=O (stereo partly shown) [Example 16] (cyclo(I[dPiz(1,6-dehydro)][X4][dNMeF]P[dF])) get with UniProt:P30560?
Result block: 930 nM

Query block: Recorded IC50 for CCOC(=O)C(C(=O)OCC)C1C=NN2C(=O)[C@H]3CCC=NN3C(=O)[C@H]([C@@H](C)CC)NC(=O)[C@@H](Cc3ccccc3)NC(=O)[C@@H]3CCCN3C(=O)[C@@H](Cc3ccccc3)N(C)C(=O)[C@@H]2C1 (stereo partly shown) [Example 17] (cyclo(I[dPiz(1,6-dehydro)][X14][dNMeF]P[dF])) with UniProt:P30560, please?
Result block: 3000 nM
